test system: MC38 cells; experiment: MTT cell proliferation assay; assay type: cell-based, murine; details: Mus musculus, MC-38, read-out: Cytotoxicity (IC50)
Where a name gives a salt, the structure may show the parent alone.
Could you please report measured IC50 for the items listed next?

The cases that follow already have their IC50 on record.
Data request, read-out IC50, for COc1cc([C@@H]2c3cc4c(cc3[C@@H](O[C@@H]3O[C@@H]5CO[C@@H](C)O[C@H]5[C@H](O)[C@H]3O)[C@H]3COC(=O)[C@H]23)OCO4)cc(OC)c1O [ETP, etoposide] 160 nM

How about this molecule: "CC(=O)O[C@H]1C(=O)[C@@]2(C)[C@H]([C@H](OC(=O)c3ccccc3)[C@]3(O)C[C@H](OC(=O)[C@H](O)[C@@H](NC(=O)c4ccccc4)c4ccccc4)C(C)=C1C3(C)C)[C@]1(OC(C)=O)CO[C@@H]1C[C@@H]2O" 32 nM

# per-item lookup of IC50; items listed below
1. Nc1ccn([C@@H]2O[C@H](CO)[C@@H](O)C2(F)F)c(=O)n1 [GCB HCl, gemcitabine]
2. COc1cccc2c1C(=O)c1c(O)c3c(c(O)c1C2=O)C[C@@](O)(C(=O)CO)C[C@@H]3O[C@H]1C[C@H](N)[C@H](O)[C@H](C)O1 [Dox HCl, doxorubicin]

1: 3 nM; 2: 23 nM
